Please respond with reported formal potential E’ vs. Ag/AgCl/3M KCl for every item in the list.
# Assay explanation: cyclic voltammetry of Cu(II)-(T)SC (1:1) systems
# Format: physicochemical
# Test parameters: 90% (v/v) DMSO/H2O, pH 7.40 (10 mM HEPES), 10 mV/s, 25 °C, I = 0.1 M (nBu4NPF6)

Give its formal potential E’ vs. Ag/AgCl/3M KCl value. Item: C[C@]12CC[C@@H]3c4cc(/C=N/N=C(N)[S-])c([O-])cc4CC[C@H]3[C@@H]1CC[C@@H]2O.O.[Cu+2] +0.31 V

Try this molecule next: CNC([S-])=N/N=C/c1cc2c(cc1[O-])CC[C@@H]1[C@@H]2CC[C@]2(C)[C@@H](O)CC[C@@H]12.O.[Cu+2] +0.29 V

Try this molecule next: C[C@]12CC[C@@H]3c4cc(/C=N/N=C(N)[O-])c([O-])cc4CC[C@H]3[C@@H]1CC[C@@H]2O.O.[Cu+2] +0.10 V

Try this molecule next: CN(C)C([S-])=N/N=C/c1cc2c(cc1[O-])CC[C@@H]1[C@@H]2CC[C@]2(C)[C@@H](O)CC[C@@H]12.O.[Cu+2] +0.33 V

----------
# Type: physicochemical
# Test parameters: estimated at pH 6.0, cCu(II) = 20 µM, cligand = 20 µM
Measure name: pCu6.0
I only need the number, thanks.

Give its pCu6.0 value. Item: CC12CCC3c4cc(C=NNC(N)=S)c(O)cc4CCC3C1CCC2=O (stereo not drawn) [estrone-TSC, reference compound] 9.2

Try this compound next: CNC(=S)NN=Cc1cc2c(cc1O)CCC1C2CCC2(C)C(=O)CCC12 (stereo not drawn) 9.2

Try this compound next: CNC(=S)NN=Cc1cc2c(cc1O)CC[C@@H]1[C@@H]2CC[C@]2(C)[C@@H](O)CC[C@@H]12 9.1

----------
# Type: physicochemical
# Test parameters: calculated at pH 5.0, cCu(II) = 20 µM, cligand = 20 µM
Please respond with reported pCu5.0 for every item in the list.
I only need the number, thanks.

Give its pCu5.0 value. Item: CN(C)C(=S)NN=Cc1cc2c(cc1O)CC[C@@H]1[C@@H]2CC[C@]2(C)[C@@H](O)CC[C@@H]12 8.0

Try this compound next: CC12CCC3c4cc(C=NNC(N)=S)c(O)cc4CCC3C1CCC2=O (stereo not drawn) [estrone-TSC, reference compound] 7.7

Try this compound next: CN(C)C(=S)NN=Cc1cc2c(cc1O)CCC1C2CCC2(C)C(=O)CCC12 (stereo not drawn) [Me2-estrone-TSC, reference compound] 8.0
